Reported values of Drug uptake for individual entries
tested on: Brain; assay: Biodistribution in ICR mouse brain at 925 KBq, iv after 30 mins by gamma counting; assay type: ADME, organism-based; details: in vivo, 0.5 h

molecule | assayed_target | Drug uptake
CNc1ccc(/C=C/c2ccc(OCCOCCOCCOCCOCC(COCCOCCOCCOCCOc3ccc(/C=C/c4ccc(NC)cc4)cn3)OCC[18F])nc2)cc1 | Brain | 0.4 % ID/g
CNc1ccc(/C=C/c2ccc(OCCOCCOCC[18F])nc2)cc1 [FLORBETAPIR F 18] | Brain | 1.59 % ID/g
CNc1ccc(/C=C/c2ccc(OCCOCCOCCOCCOCCOCCOCC(COCCOCCOCCOCCOCCOCCOc3ccc(/C=C/c4ccc(NC)cc4)cn3)OCC[18F])nc2)cc1 | Brain | 0.38 % ID/g
CNc1ccc(/C=C/c2ccc(OCCOCCOCCOCCOCCOCC(COCCOCCOCCOCCOCCOc3ccc(/C=C/c4ccc(NC)cc4)cn3)OCC[18F])nc2)cc1 | Brain | 0.34 % ID/g

###

// reported Drug uptake per item
tested on: Liver; test: Biodistribution in ICR mouse liver at 925 KBq, iv after 2 mins by gamma counting; format: ADME, organism-based; details: in vivo

chemical_structure | Drug uptake
CNc1ccc(/C=C/c2ccc(OCCOCCOCCOCCOCCOCCOCC(COCCOCCOCCOCCOCCOCCOc3ccc(/C=C/c4ccc(NC)cc4)cn3)OCC[18F])nc2)cc1 | 30.2 % ID/g
CNc1ccc(/C=C/c2ccc(OCCOCCOCCOCCOCCOCC(COCCOCCOCCOCCOCCOc3ccc(/C=C/c4ccc(NC)cc4)cn3)OCC[18F])nc2)cc1 | 33.5 % ID/g
CNc1ccc(/C=C/c2ccc(OCCOCCOCC[18F])nc2)cc1 | 21.5 % ID/g
CNc1ccc(/C=C/c2ccc(OCCOCCOCCOCCOCC(COCCOCCOCCOCCOc3ccc(/C=C/c4ccc(NC)cc4)cn3)OCC[18F])nc2)cc1 | 21.2 % ID/g

###

test system: Brain; assay: Biodistribution in ICR mouse brain at 925 KBq, iv after 2 mins by gamma counting; assay type: ADME, organism-based; settings: in vivo
Here, each record is paired with measured Drug uptake data.

compound | assayed_target | Drug uptake (% ID/g)
CNc1ccc(/C=C/c2ccc(OCCOCCOCCOCCOCC(COCCOCCOCCOCCOc3ccc(/C=C/c4ccc(NC)cc4)cn3)OCC[18F])nc2)cc1 | Brain | 0.4
CNc1ccc(/C=C/c2ccc(OCCOCCOCCOCCOCCOCC(COCCOCCOCCOCCOCCOc3ccc(/C=C/c4ccc(NC)cc4)cn3)OCC[18F])nc2)cc1 | Brain | 0.4
CNc1ccc(/C=C/c2ccc(OCCOCCOCCOCCOCCOCCOCC(COCCOCCOCCOCCOCCOCCOc3ccc(/C=C/c4ccc(NC)cc4)cn3)OCC[18F])nc2)cc1 | Brain | 0.29
CNc1ccc(/C=C/c2ccc(OCCOCCOCC[18F])nc2)cc1 [FLORBETAPIR F 18] | Brain | 7.77

###

target: Amyloid-beta precursor protein (Homo sapiens); experiment: Displacement of [18F]-amyvid from amyloid-beta aggregates in alzheimer's disease patient brain homogenates after 1 hr
Sequence (P05067 whole entry): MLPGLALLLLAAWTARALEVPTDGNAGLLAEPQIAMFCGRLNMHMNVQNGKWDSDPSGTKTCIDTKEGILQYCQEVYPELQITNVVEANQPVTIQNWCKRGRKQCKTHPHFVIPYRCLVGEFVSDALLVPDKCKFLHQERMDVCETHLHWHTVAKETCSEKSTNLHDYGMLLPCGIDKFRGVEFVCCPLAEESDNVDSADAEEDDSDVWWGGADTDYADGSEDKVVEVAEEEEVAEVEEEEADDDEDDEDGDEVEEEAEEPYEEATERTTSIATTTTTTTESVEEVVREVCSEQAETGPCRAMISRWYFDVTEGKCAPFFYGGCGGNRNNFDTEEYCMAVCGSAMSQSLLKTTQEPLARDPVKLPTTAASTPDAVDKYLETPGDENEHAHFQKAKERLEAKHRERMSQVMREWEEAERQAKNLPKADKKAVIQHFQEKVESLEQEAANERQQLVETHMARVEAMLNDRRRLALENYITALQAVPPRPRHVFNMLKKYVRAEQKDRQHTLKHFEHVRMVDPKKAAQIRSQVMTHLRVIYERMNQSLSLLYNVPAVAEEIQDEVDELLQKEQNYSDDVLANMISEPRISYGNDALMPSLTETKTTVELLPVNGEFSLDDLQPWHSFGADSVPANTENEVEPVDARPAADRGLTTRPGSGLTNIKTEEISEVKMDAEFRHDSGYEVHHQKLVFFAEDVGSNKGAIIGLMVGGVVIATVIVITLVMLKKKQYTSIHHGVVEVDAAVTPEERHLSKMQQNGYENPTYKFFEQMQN
measured_endpoint: Ki (nM)

chemical_structure | qualifying_sign | measured_result
CNc1ccc(/C=C/c2ccc(OCCOCCOCC[18F])cc2)cc1 | = | 2.22
CNc1ccc(/C=C/c2ccc(OCCOCCOCCOCCn3cc(COCC(COCCOCCOCCF)(COCc4cn(CCOCCOCCOCCOc5ccc(/C=C/c6ccc(NC)cc6)cn5)nn4)COCc4cn(CCOCCOCCOCCOc5ccc(/C=C/c6ccc(NC)cc6)cn5)nn4)nn3)nc2)cc1 | = | 468
CNc1ccc(/C=C/c2ccc(OCCOCCOCCOCCNC(=O)CN(CC(=O)NCCOCCOCCOCCOc3ccc(/C=C/c4ccc(NC)cc4)cn3)C(=O)COCCOCCOCCF)nc2)cc1 | = | 71.2
CNc1ccc(/C=C/c2ccc(OCCOCCOCCOCCOCCOCC(COCCOCCOCCOCCOCCOc3ccc(/C=C/c4ccc(NC)cc4)cn3)OCCF)nc2)cc1 | = | 7.71
CN(C(=O)OC(C)(C)C)c1ccc(/C=C/c2ccc(OCCOCCOCCOCCOCC(COCCOCCOCCOCCOc3ccc(/C=C/c4ccc(N(C)C(=O)OC(C)(C)C)cc4)cn3)OCCF)nc2)cc1 | > | 1000
CNc1ccc(/C=C/c2ccc(OCCOCCOCCOCCOCCOCCOCC(COCCOCCOCCOCCOCCOCCOc3ccc(/C=C/c4ccc(NC)cc4)cn3)OCCF)nc2)cc1 | = | 3.86
CNc1ccc(/C=C/c2ccc(OCCOCCOCCOCCOCC(COCCOCCOCCOCCOc3ccc(/C=C/c4ccc(NC)cc4)cn3)OCCF)nc2)cc1 | = | 3.24
CNc1ccc(-c2nc3ccc(O)cc3s2)cc1[18F] | = | 0.74
